These data points were gathered from paper PMC5228287.

Target sequence: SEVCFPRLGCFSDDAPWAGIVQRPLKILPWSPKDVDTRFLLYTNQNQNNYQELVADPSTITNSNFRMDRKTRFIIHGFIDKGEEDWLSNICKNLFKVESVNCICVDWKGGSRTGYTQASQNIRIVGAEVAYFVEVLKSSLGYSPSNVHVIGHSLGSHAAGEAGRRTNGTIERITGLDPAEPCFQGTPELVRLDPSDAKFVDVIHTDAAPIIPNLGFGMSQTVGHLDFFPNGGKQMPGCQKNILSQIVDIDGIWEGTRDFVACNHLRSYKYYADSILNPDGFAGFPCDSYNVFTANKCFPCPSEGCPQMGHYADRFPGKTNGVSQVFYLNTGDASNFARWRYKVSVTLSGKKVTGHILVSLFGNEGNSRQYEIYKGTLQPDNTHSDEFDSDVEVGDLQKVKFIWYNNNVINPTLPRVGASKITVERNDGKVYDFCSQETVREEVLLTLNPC
RESULT TYPE: IC50

molecule="O=c1c(O)cc([C@H]2Oc3cc(O)cc(O)c3C[C@H]2O)cc2c([C@H]3Oc4cc(O)cc(O)c4C[C@H]3O)cc(O)c(O)c12 [TF, Theaflavin]" result="> 10 µM"
